Biological target: T1, KIAA0807 (PDZ domain)-GST fusion protein (human, UniProt Q6P0Q8 1104-1192)
T1 construct: also called K807; KIAA807; not shown: glutathione S-transferase encoded by vector pGEX-3X (Pharmacia)
T1 sequence: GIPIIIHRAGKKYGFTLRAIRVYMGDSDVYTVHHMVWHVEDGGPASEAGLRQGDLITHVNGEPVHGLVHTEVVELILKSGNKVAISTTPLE
Test: A/G assays
Ends that are not written are not given here. * marks the point of attachment. Biotin = O=C1N[C@H]2[C@H](CS[C@H]2CCCCC(=O)*)N1
Reported endpoint: binding result

Biotin-DTPSSSYTQSTMDHDLHDAL (Only the last four residues are seen in the excerpts) [CC CKR-4 C-terminal peptide AA44L] | no binding
Biotin-ISKATPALPTVSISSSAEV (also called AA1L-R) [Clasp-1 C-terminal peptide AA1L, biotinylated] | no binding
Biotin-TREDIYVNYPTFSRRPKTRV [DNAM-1 C-terminal peptide AA22L, biotinylated] | no binding
Biotin-TSGTGHNQTRALRASESGI (also called CD97 (CD55L)) [CD97 C-terminal peptide AA14L, biotinylated] | no binding
Biotin-SSGGRARHSYHHPDQDHWC (Marked (S), sticky peptide with high background; also called V-gated Ca2+ channel (S)) [V-gated Ca2+ channel C-terminal peptide AA46L] | no binding
Biotin-QFMTADETRNLQNVDMKIGV (also called CD44 (long form)) [CD44 C-terminal peptide AA9L, biotinylated] | no binding

Let's switch to this binder now.
Record request: binding result value, item Biotin-SSKSKSSEESQTFFGLYKL (not fully specified, also called FasLigand; Fas ligand) [FasL C-terminal peptide AA23L-M, biotinylated] no binding

Values from patent US20050037969A1
